# protocol_details: Effect on growth of Francisella philomiragia ATCC 25015 after 48 hrs
readout: MIC

See these solved cases before continuing.
[
  {
    "sample_smiles": "CCSC(=O)N1CCc2ccccc21",
    "MIC": "> 200 µM"
  },
  {
    "sample_smiles": "CCCCc1ccc(C(=O)NCCc2c[nH]c3ccccc23)cc1",
    "MIC": "> 200 µM"
  },
  {
    "sample_smiles": "CCCCCc1ccc(C2=NCCO2)cc1",
    "MIC": "200 µM"
  },
  {
    "sample_smiles": "CCCCc1ccc(C(=O)NCCCc2c[nH]c3ccccc23)cc1",
    "MIC": "> 200 µM"
  }
]

Next, consider the following compound.
Fill blank: measured MIC of the compound Cc1cc2nc(N)[nH]c2cc1C is ____.
> 200 µM

###

# protocol_details: microbe, parasite or virus in culture
# Format: functional
# condition_parameters: Francisella philomiragia, ATCC 25015, 48 h
# maps each entry to its MIC
Response body: numeric value in µg/mL, unit text excluded.

See these solved cases before continuing.
[
  {
    "sample_smiles": "CCSC(=O)N1CCc2ccccc21",
    "MIC [µg/mL]": 1020
  },
  {
    "sample_smiles": "CCCCc1ccc(C(=O)NCCc2c[nH]c3ccccc23)cc1",
    "MIC [µg/mL]": 1020
  }
]

Fill blank: measured MIC of the compound Cc1cc2nc(N)[nH]c2cc1C is ____.
1020
